Experiment: BSK_hDFCGF_Proliferation: Cell Proliferation Assessment in the BioMAP Diversity Plus: hDFCGF Assay (AID 2283059);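 note: curves fitted for both rise and fall of signal versus DMSO baseline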
Setup Conditions: primary human foreskin fibroblasts
The source made the active and inactive calls. Rule for the calls: active = hit-call score of the fitted dose curve at least 0.9, where 1 is the maximum; inactive = score below 0.9.
Form entry, call: pick from true for active, false for inactive

Please review the entries below; each comes with its answer.
>>> answer_label("c1cc2c3c(cccc3c1)CC2")
"false"
>>> answer_label("Nc1ccc2ccccc2c1")
"false"
>>> answer_label("O=C(O)C(F)(F)OC(F)(F)C(F)(F)OC(F)(F)F")
"false"

## Input For `COP(N)(=S)OC` , which call appears in the assay record?
## Output false

## Input For `C=CC(=O)OCC(CC)(COC(=O)C=C)COC(=O)C=C` , which call appears in the assay record?
## Output true

## Input For `CC(C)(C)c1ccccc1OP(=O)(Oc1ccccc1)Oc1ccccc1` , which call appears in the assay record?
## Output true

## Input For `COCCOCCO` , which call appears in the assay record?
## Output false

###

Read-out: ABC Transporter (ABCB1), ABCB1 (gene 5243)
Experiment: LTEA_HepaRG_ABCB1: Life Technologies and Expression Analysis (LTEA) Assay for ABC Transporter (ABCB1) using HepaRG (AID 2283460)
Setup Conditions: mRNA level, 48 h; actives raise or lower the signal
Calls of active or inactive are those of the source. How the source made its calls: active means hit-call score of the fitted dose curve at least 0.9, where 1 is the maximum; inactive means score below 0.9.
Form entry, call: pick from TRUE (active), FALSE (inactive)

Please review the entries below; each comes with its answer.
>>> answer_label("CC(Cl)(Cl)C(=O)O")
"FALSE"
>>> answer_label("CCC1(c2ccccc2)C(=O)N=C(O)NC1=O (stereo not drawn)")
"FALSE"
>>> answer_label("O=[N+]([O-])c1ccccc1")
"FALSE"

# next compound below
## Input For `c1nc[nH]n1` , which call appears in the assay record?
## Output FALSE

###

Read-out: E-selectin (Homo sapiens)
Experiment: BSK_LPS_Eselectin: BioMAP Diversity Plus: LPS Assay for Eselectin Biomarker Activity (AID 2283077)
Setup Conditions: primary human HUVEC with PBMC; actives raise or lower the signal
Activity calls are given as the source filed them. The calls were made as follows: active = hit-call score of the fitted dose curve at least 0.9, where 1 is the maximum; inactive = score below 0.9.
Form entry, call: pick from active, inactive

Please review the entries below; each comes with its answer.
>>> answer_label("O=P1(N(CCCl)CCCl)NCCCO1 (stereo not drawn)")
"inactive"
>>> answer_label("Cc1cccc(N)c1")
"inactive"
>>> answer_label("CC(C)(C)c1ccccc1OP(=O)(Oc1ccccc1)Oc1ccccc1")
"active"
>>> answer_label("COC(=O)C(F)(F)C(F)(F)OC(F)(C(F)(F)F)C(F)(F)OC(F)=C(F)F (stereo not drawn)")
"inactive"
>>> answer_label("CC(C)(C)OOC(C)(C)C")
"inactive"
>>> answer_label("O=C(O)C1C(C(=O)O)C2(Cl)C(Cl)=C(Cl)C1(Cl)C2(Cl)Cl (stereo not drawn)")
"inactive"
>>> answer_label("O=C(O)C(F)(F)OC(F)(F)C(F)(F)OC(F)(F)F")
"inactive"
>>> answer_label("Nc1ccc2ccccc2c1")
"inactive"

## Input For `NC(=O)C(F)(F)C(F)(F)F` , which call appears in the assay record?
## Output inactive

## Input For ClC1=C(Cl)C2(Cl)C3C(Cl)C(Cl)CC3C1(Cl)C2(Cl)Cl (stereo not drawn) , which call appears in the assay record?
## Output active

###

Experiment: CCTE_Shafer_MEA_dev_spike_duration_mean: CCTE's Neural Network Formation Assay for Mean Spike Duration, Shafer Lab (AID 2284051);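 note: mean network spike duration pooled as area under curve over DIV 5 to 12 recordings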
The source made the active and inactive calls. Rule for the calls: active = hit-call score of the fitted dose curve at least 0.9, where 1 is the maximum; inactive = score below 0.9.
Form entry, call: pick from active, inactive

## Input For `O=C(O)C(F)(F)OC(F)(F)C(F)(F)OC(F)(F)C(=O)O` , which call appears in the assay record?
## Output inactive

## Input For O=C(O)C(F)(OC(F)(F)C(F)(F)C(F)(F)F)C(F)(F)F (stereo not drawn) , which call appears in the assay record?
## Output inactive

## Input For `O=S(=O)(c1ccc(O)cc1)c1ccc(O)cc1` , which call appears in the assay record?
## Output inactive

## Input For O=C(O)C1C(C(=O)O)C2(Cl)C(Cl)=C(Cl)C1(Cl)C2(Cl)Cl (stereo not drawn) , which call appears in the assay record?
## Output inactive

## Input For `c1ccc(OP(Oc2ccccc2)Oc2ccccc2)cc1` , which call appears in the assay record?
## Output inactive

## Input For `OCC(F)(F)OC(F)(F)C(F)(F)OC(F)(F)CO` , which call appears in the assay record?
## Output inactive

## Input For `O=C(O)C=CC(F)(C(F)(F)F)C(F)(F)F` , which call appears in the assay record?
## Output inactive

## Input For CCCCC(CC)COP(=O)(Oc1ccccc1)Oc1ccccc1 (stereo not drawn) , which call appears in the assay record?
## Output inactive

## Input For ClC1=C(Cl)C2(Cl)C3C(Cl)C(Cl)CC3C1(Cl)C2(Cl)Cl (stereo not drawn) , which call appears in the assay record?
## Output active

## Input For O=P1(N(CCCl)CCCl)NCCCO1 (stereo not drawn) , which call appears in the assay record?
## Output inactive

## Input For `O=P(Oc1ccccc1)(Oc1ccccc1)Oc1ccccc1` , which call appears in the assay record?
## Output inactive

## Input For CCC1(c2ccccc2)C(=O)N=C(O)NC1=O (stereo not drawn) , which call appears in the assay record?
## Output inactive

## Input For `CCOc1ccc(C(C)(C)COCc2cccc(Oc3ccccc3)c2)cc1` , which call appears in the assay record?
## Output active

###

Read-out: Human Leukocyte Antigen - DR isotype (HLADR), HLA-DRA (gene 3122)
Experiment: BSK_CASM3C_HLADR: BioMAP Diversity Plus: CASM3C Assay for Human Leukocyte Antigen - DR isotype (HLADR) Biomarker Activity (AID 2283043);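 note: cell-surface HLA-DR protein level quantified by ELISA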
Setup Conditions: primary human coronary artery smooth muscle cells; actives raise or lower the signal
The source made the active and inactive calls. How the source made its calls: active means hit-call score of the fitted dose curve at least 0.9, where 1 is the maximum; inactive means score below 0.9.
Form entry, call: pick from active, inactive

## Input For `O=S(=O)(F)C(F)(F)C(F)(F)C(F)(F)C(F)(F)C(F)(F)C(F)(F)C(F)(F)C(F)(F)F` , which call appears in the assay record?
## Output inactive

###

Read-out: UDP glucuronosyltransferase (UGT1A1), UGT1A1 (gene 54658)
Experiment: LTEA_HepaRG_UGT1A1: Life Technologies and Expression Analysis (LTEA) Assay for UDP glucuronosyltransferase (UGT1A1) using HepaRG (AID 2283538)
Setup Conditions: mRNA level, 48 h; actives raise or lower the signal
Description: LTEA_HepaRG is a cell based, multiplexed-readout assay that uses HepaRG, a human liver cell line, with measurements taken at 48 hours after chemical dosing on a 96-well plate.LTEA_HepaRG_UGT1A1 is one of 102 assay component(s) measured in the LTEA HepaRG cell culture assay. It is a marker of Steatosis/NR mediated metabolism.Data from the assay component LTEA_HepaRG_UGT1A1 was analyzed into 1 endpoint. […]
Active and inactive are the calls of the source. The calls were made as follows: active = hit-call score of the fitted dose curve at least 0.9, where 1 is the maximum; inactive = score below 0.9.
Form entry, call: pick from active, inactive

Please review the entries below; each comes with its answer.
>>> answer_label("Nc1ccc2ccccc2c1")
"active"
>>> answer_label("CCCCN(CCCC)SN(C)C(=O)Oc1cccc2c1OC(C)(C)C2")
"active"

## Input For `c1nc[nH]n1` , which call appears in the assay record?
## Output inactive

## Input For `O=P(Oc1ccccc1)(Oc1ccccc1)Oc1ccccc1` , which call appears in the assay record?
## Output active

## Input For `CSC(C)(C)C=NO` , which call appears in the assay record?
## Output inactive

## Input For `O=C(O)C(Cl)Cl` , which call appears in the assay record?
## Output inactive

## Input For `CCN(CC)c1ccccc1` , which call appears in the assay record?
## Output inactive

## Input For `ClC(Cl)c1ccccc1` , which call appears in the assay record?
## Output inactive

###

Experiment: Tanguay_ZF_120hpf_SNOU_legacy: (Legacy) Oregon State University Tanguay Lab 120 Hour Post-fertilization zebrafish Assay for Snout Malformation (AID 2283637)
Records with an inconclusive call do not appear. Active and inactive are the calls of the source. How the source made its calls: active means hit-call score of the fitted dose curve at least 0.9, where 1 is the maximum; inconclusive means response in the unintended direction; inactive means score below 0.9.
Endpoint Label: AC50

Example entries and their recorded answers appear below.
>>> reported_measurement("Nc1ccc2ccccc2c1")
"33.9 µM (active)"
>>> reported_measurement("c1ccc(OP(Oc2ccccc2)Oc2ccccc2)cc1")
"inactive"
>>> reported_measurement("c1cc2c3c(cccc3c1)CC2")
"inactive"
>>> reported_measurement("CC(Cl)(Cl)C(=O)O")
"inactive"
>>> reported_measurement("CC(C)(C)c1ccc(O)cc1")
"inactive"

## Input What value of measured AC50 is listed for `CC(C)(C)OOC(C)(C)C` ?
## Output inactive

## Input What value of measured AC50 is listed for `Cc1cccc(N)c1` ?
## Output inactive

## Input What value of measured AC50 is listed for `CCC(C)(C)c1ccc(O)cc1` ?
## Output 52.7 µM (active)

###

Tested On: Hepatocyte nuclear factor 3-beta (Homo sapiens)
Experiment: ATG_FoxA2_CIS: Attagene CIS-FACTORIAL HepG2 Assay for human Forkhead box A2 (FOXA2) (AID 2282942)
Setup Conditions: HepG2 cis-reporter transcription factor activity, 24 h; actives raise or lower the signal
Activity calls are given as the source filed them. Rule for the calls: active = hit-call score of the fitted dose curve at least 0.9, where 1 is the maximum; inactive = score below 0.9.
Endpoint Label: outcome

Example entries and their recorded answers appear below.
>>> reported_measurement("CCOC(=O)c1ccccc1C(=O)OCC")
"inactive"
>>> reported_measurement("CC(=O)c1ccc(-c2ccccc2)cc1")
"inactive"
>>> reported_measurement("[N-]=[N+]=[N-]")
"inactive"
>>> reported_measurement("N#Cc1ccc(O)cc1")
"inactive"
>>> reported_measurement("O=S(=O)(F)C(F)(F)C(F)(F)C(F)(F)C(F)(F)C(F)(F)C(F)(F)C(F)(F)C(F)(F)F")
"inactive"

## Input Give recorded outcome with Hepatocyte nuclear factor 3-beta (Homo sapiens) for the following molecule: `CSC(C)(C)C=NO`
## Output inactive

## Input Give recorded outcome with Hepatocyte nuclear factor 3-beta (Homo sapiens) for the following molecule: `OCC(F)(F)OC(F)(F)C(F)(F)OC(F)(F)C(F)(F)OC(F)(F)F`
## Output inactive
